Attribution: ChEMBL document CHEMBL1128242

# Test system: Rattus norvegicus
# test: Distribution of radioactivity was determined in spleen at 30 min after intravenous administration of 1,3-Disubstituted Triacylglycerols in rats
# Assay type: ADME, organism-based
# cond: in vivo, 0.5 h
Each entry below lists one item and its recorded Distribution of radioactivity value.

Exercise: Please look at this molecule and report its Distribution of radioactivity: CCCCCCCC/C=C/CCCCCCCC(=O)OC(COC(=O)CCc1c(I)cc(I)c(N)c1I)COC(=O)CCc1c(I)cc(I)c(N)c1I
Solution: 13 % dose/organ

Exercise: Please look at this molecule and report its Distribution of radioactivity: CCCCCCCC/C=C/CCCCCCCC(=O)OC(COC(=O)CCCCc1c(I)cc(I)c(N)c1I)COC(=O)CCCCc1c(I)cc(I)c(N)c1I
Solution: 9.5 % dose/organ

Exercise: Please look at this molecule and report its Distribution of radioactivity: CCCCCCCC/C=C/CCCCCCCC(=O)OC(COC(=O)C(CC)Cc1c(I)cc(I)c(N)c1I)COC(=O)C(CC)Cc1c(I)cc(I)c(N)c1I (configuration not stated)
Solution: 14.4 % dose/organ

Exercise: Please look at this molecule and report its Distribution of radioactivity: CCCCCCCC/C=C/CCCCCCCC(=O)OC(COC(=O)Cc1c(I)cc(I)c(N)c1I)COC(=O)Cc1c(I)cc(I)c(N)c1I
Solution: 12 % dose/organ

Exercise: Please look at this molecule and report its Distribution of radioactivity: CCCCCCCC/C=C/CCCCCCCC(=O)OC(COC(=O)CCCc1c(I)cc(I)c(N)c1I)COC(=O)CCCc1c(I)cc(I)c(N)c1I
Solution: 13.7 % dose/organ

Exercise: Please look at this molecule and report its Distribution of radioactivity: CCCCCCCC/C=C/CCCCCCCC(=O)OC(COC(=O)CCCCCCc1c(I)cc(I)c(N)c1I)COC(=O)CCCCCCc1c(I)cc(I)c(N)c1I
Solution: 10.5 % dose/organ

Exercise: Please look at this molecule and report its Distribution of radioactivity: CCCCCCCC/C=C/CCCCCCCC(=O)OC(COC(=O)CCCCCc1c(I)cc(I)c(N)c1I)COC(=O)CCCCCc1c(I)cc(I)c(N)c1I
Solution: 13.9 % dose/organ
